Numbers sourced from paper PMC3785238.

molecular target: T1, mGluR5 peptide spanning the Homer/Pin1 binding site, bacterially expressed, phosphorylated at T1123 and S1126
T1 chain: KELVAL[pT]PP[pS]PFRD
Non-standard residues stand in square brackets, D forms with d. No end group written: not given here. pT = C[C@@H](OP(=O)(O)O)[C@H](N)C(=O)O; pS = N[C@@H](COP(=O)(O)O)C(=O)O
quantity: Kd (µM)
Number only, in µM; omit the unit.

-- ask Could you tell me which Kd is on file for EKLPPGWEKRMSRSSGRVYYFNHITNASQWERPSG (domain or fragment, UniProt Q13526 5-39, looked up) [WW domain of Pin1] ?
-- reply 10.7
